molecular target: wild type AeSCP-2 (Aedes aegypti); assay: Ligand competition assay with NBD-cholesterol
property measured: pEC50
// scale note: pEC50 = -log10(conc_M); give the bare number

Per the reported wild type AeSCP-2 (Aedes aegypti) data, CC(C)CCC[C@@H](C)[C@H]1CC[C@H]2[C@@H]3CC=C4C[C@@H](O)CC[C@]4(C)[C@H]3CC[C@]12C [cholesterol] has pEC50 of 6.68

Per the reported wild type AeSCP-2 (Aedes aegypti) data, CC[C@H](CC[C@@H](C)[C@H]1CC[C@H]2[C@@H]3CC=C4C[C@@H](O)CC[C@]4(C)[C@H]3CC[C@]12C)C(C)C [β-sitosterol] has pEC50 of 6.85

Per the reported wild type AeSCP-2 (Aedes aegypti) data, CCCCCCCCCCCCCCCC(=O)O [palmitic acid] has pEC50 of 6.46

====

target: AeSCP-2 F32W mutant (Aedes aegypti, UniProt Q86PR3, F32W); test: Ligand competition assay with NBD-cholesterol
property measured: EC50

The cases that follow already have their EC50 on record.
structure as smiles: CC(C)CCC[C@@H](C)[C@H]1CC[C@H]2[C@@H]3CC=C4C[C@@H](O)CC[C@]4(C)[C@H]3CC[C@]12C
data value: 447 nM
//
structure as smiles: CCCCCCCCCCCCCCCC(=O)O
data value: 398 nM

Kindly consider the entry below.
Per the reported AeSCP-2 F32W mutant (Aedes aegypti, UniProt Q86PR3, F32W) data, CC[C@H](CC[C@@H](C)[C@H]1CC[C@H]2[C@@H]3CC=C4C[C@@H](O)CC[C@]4(C)[C@H]3CC[C@]12C)C(C)C has EC50 of 61 nM
